Test system: HEK293FT dCK*-IKZF1
Assay: relative growth recovery (pomalidomide 10 uM = 100%, DMSO = 0%); higher = more growth rescue (IKZF1 fusion degradation)
Conditions: compound concentration: 5 uM; AraC concentration: 0.3 uM; overnight pretreatment + 4 days AraC
Measurement kind: relative growth recovery (%)
Dear colleague, please return just the value in %, with no unit written.

Study these solved cases before continuing.
Compound	Unit	Measured
C/C(=N/Nc1nnc2c(n1)[nH]c1c(C)cccc12)c1ccccn1	%	-12.6
O=C(Nc1ccc(Cl)nc1)c1ccc(Cl)cc1	%	3.85
OC1=C(C[C@]([C@](CO)=O)(O)C[C@@H]4O[C@@]5([H])C[C@H](N)[C@H](O)[C@H](C)O5)C4=C(O)C3=C1C(C2=CC=CC(OC)=C2C3=O)=O	%	-13.8
O=C(OC)C1=C(C)NC(C)=C([N+]([O-])=O)[C@H]1[C@]2=CC=CC=C2C(F)(F)F	%	-0.325
CNC(=O)Nc1ccc(-c2nc(N3CC4CCC(C3)O4)c3cnn(C4CCC5(CC4)OCCO5)c3n2)cc1	%	-13.5

For the compound shown here, CCN(CC)CCCCC(NC(=O)c1ccc([N+](=O)[O-])cc1)c1ccccc1 (stereo not given) , give the reported relative growth recovery.
1.83

Entry "CCN1CCN(Cc2ccc(-c3cc4c(N[C@H](C)c5ccccc5)ncnc4[nH]3)cc2)CC1" please
-8.18

----------
// relative growth in counter assay lookup, one value per entry
Tested on: HEK293FT dCK*-only
Assay: relative growth in counter assay (no AraC = 100%, AraC + DMSO = 0%); higher = more growth rescue independent of IKZF1
Conditions: compound concentration: 5 uM; AraC concentration: 0.3 uM; overnight pretreatment + 4 days AraC
Counter-ions that a name gives are not always drawn.
Dear colleague, please return just the value in %, with no unit written.

Molecule	Measurement kind	Measured
CCc1c2c(nc3ccc(OC(=O)N4CCC(N5CCCCC5)CC4)cc13)-c1cc3c(c(=O)n1C2)COC(=O)[C@]3(O)CC [irinotecan]	relative growth in counter assay	-35.4
O=C(CCCCCCC(=O)NO)NO	relative growth in counter assay	-7.76
CN1CCC[C@@H]1CCO[C@](C)(c1ccccc1)c1ccc(Cl)cc1 [Clemastine Fumarate]	relative growth in counter assay	4.09
O=C(O)c1ccccc1-c1c2cc(I)c(=O)c(I)c-2oc2c(I)c(O)c(I)cc12	relative growth in counter assay	-0.87

Now look at this entry.
For the molecule shown here, "Oc1c(I)cc(I)c(O)c1I" , give the reported relative growth in counter assay.
2.24

----------
System: HEK293FT dCK*-only
Assay: relative growth in counter assay (no AraC = 100%, AraC + DMSO = 0%); higher = more growth rescue independent of IKZF1
Conditions: compound concentration: 5 uM; AraC concentration: 0.3 uM; overnight pretreatment + 4 days AraC
Structures can show the parent of a compound that is named as a salt.
// relative growth in counter assay lookup, one value per entry
Dear colleague, please return just the value in %, with no unit written.

Study these solved cases before continuing.
Molecule	relative growth in counter assay (%)
CNC(=O)Nc1ccc(-c2nc(N3CC4CCC(C3)O4)c3cnn(C4CCC5(CC4)OCCO5)c3n2)cc1	-32.9
C[C@H]1[C@H](OC(=O)CCC(=O)O)O[C@@H]2O[C@@]3(C)CC[C@H]4[C@H](C)CC[C@@H]1[C@@]24OO3	-30
OC(c1cc(C(F)(F)F)nc2c(C(F)(F)F)cccc12)C1CCCCN1 (centres undefined) [Mefloquine HCl]	-1.31

For the molecule shown here, Clc1ccc(COC(Cn2ccnc2)c2ccc(Cl)cc2Cl)c(Cl)c1 (centres undefined) , give the reported relative growth in counter assay.
-7.63

Entry "O=c1[nH]c(=O)n([C@H]2C[C@H](O)[C@@H](CO)O2)cc1F" please
-29.6
